reported-metric: melting point

**Query** Could you tell me which melting point is on file for CON=C(C)CC1CC(O)=C(c2c(C)cc([N+](=O)[O-])cc2C)C1=O (stereo not drawn) [6-032] ?
**Result** 181 to 183 °C

**Query** Another molecule to look at: CCc1cc(Br)cc(C)c1C1=C(O)CC(CC(C)=NOC)C1=O (stereo not drawn) [6-001]
**Result** 151 to 153 °C

**Query** Another molecule to look at: CON=C(C)CC1CC(OC)=C(c2c(C)cc(C)cc2C)C1=O (stereo not drawn) [1-001]
**Result** 92 to 98 °C

**Query** Another molecule to look at: CC(CC1CC(O)=C(c2c(C)cc(C)cc2C)C1=O)=NO (stereo not drawn) [1-058]
**Result** 95 to 98 °C

**Query** Another molecule to look at: CON=C(C)CC1CC(O)=C(c2c(C)cc(C3CC3)cc2C)C1=O (stereo not drawn) [6-050]
**Result** 170 to 178 °C

Switching to the query record.
**Query** Could you tell me which melting point is on file for CON=C(C)CC1CC(O)=C(c2c(C)cccc2C)C1=O (stereo not drawn) [6-112] ?
**Result** 167 to 170 °C
